These measurements were taken from PubChem BioAssay (Tox21).

Assay: qHTS assay for identifying genotoxic compounds that show differential cytotoxicity against isogenic chicken DT40 cell lines with known DNA damage response pathways - Rad54/Ku70 mutant cell line (AID 743015); note: nearly all actives have a fitted effect of over 60% in size
Conditions: DT40 Rad54/Ku70 mutant viability, CellTiter-Glo, 40 h; series mostly up to 66.8 µM
Inconclusive results are not listed. The source made the active and inactive calls. Calls come from the whole dose curve; as a rule, active = well fitted cell-killing curve with a large enough effect in the repeat runs; inconclusive = weak or mixed curves; inactive = no such curve, though single readings can be large or run the other way.
Classes used: T (active), F (inactive)

COMPOUND | CAT
CC[C@H](C)[C@@H]1NC(=O)[C@H](Cc2ccc(O)cc2)NC(=O)[C@@H](N)CSSC[C@@H](C(=O)N2CCC[C@H]2C(=O)N[C@@H](CC(C)C)C(=O)NCC(N)=O)NC(=O)[C@H](CC(N)=O)NC(=O)[C@H](CCC(N)=O)NC1=O | F
CN(C)C=Nc1c(I)cc(I)c(CCC(=O)O)c1I | F
CC(CN(C)C)CN1c2ccccc2Sc2ccc(C(F)(F)F)cc21 (stereo not given) | T
S=C=Nc1ccc(N=C=S)cc1 | F
O=C1C(=O)c2ncccc2-c2cccnc21 | T

---

Biological target: Nuclear receptor subfamily 1 group I member 2 (Homo sapiens) (UniProt O75469)
Test: CYP3A4 induction through human pregnane X receptor (PXR) by small molecules, qHTS assay (AID 1346984); note: nearly all actives have a fitted effect of over 40% in size
Conditions: DPX-2 HepG2 PXR, CYP3A4-luciferin luminescence, 24 h; series mostly up to 46.1 µM
Results filed as inconclusive are left out. Activity calls are given as the source filed them. Calls follow the shape of the dose curve; as a rule, active = well fitted activation curve with a large enough effect in the repeat runs; inconclusive = weak or mixed curves; inactive = no such curve, though single readings can be large or run the other way.
Classes used: t = active, f = inactive

MOLECULE | MEASUREMENT_TARGET | CAT
C=C1CC[C@H](O)CC1=C/C=C1\CCC[C@]2(C)[C@@H]([C@H](C)CCCC(C)(C)O)CC[C@@H]12 | Nuclear receptor subfamily 1 group I member 2 (Homo sapiens) (UniProt O75469) | f
COC(F)(F)C(Cl)Cl | Nuclear receptor subfamily 1 group I member 2 (Homo sapiens) (UniProt O75469) | f
CCCCCCCCCCCCCCCCCC(=O)OC[C@@H](O)[C@H]1OC[C@H](O)[C@H]1O | Nuclear receptor subfamily 1 group I member 2 (Homo sapiens) (UniProt O75469) | f
COc1cc2c(cc1OC)CC(=O)N(CCCN(C)C[C@H]1Cc3cc(OC)c(OC)cc31)CC2 | Nuclear receptor subfamily 1 group I member 2 (Homo sapiens) (UniProt O75469) | f
NCc1ccccc1CC(=O)N[C@@H]1C(=O)N2C(C(=O)O)=C(CSc3nnnn3CC(=O)O)CS[C@H]12 | Nuclear receptor subfamily 1 group I member 2 (Homo sapiens) (UniProt O75469) | f
c1ccc2c(c1)Sc1ccccc1N2CCN1CCCC1 | Nuclear receptor subfamily 1 group I member 2 (Homo sapiens) (UniProt O75469) | t
C=Cc1c(C)c2cc3nc(cc4[nH]c(cc5nc(cc1[nH]2)C(C)=C5CCC(=O)OC)c(CCC(=O)O)c4C)[C@@]1(C)C3=CC=C(C(=O)OC)[C@H]1C(=O)OC | Nuclear receptor subfamily 1 group I member 2 (Homo sapiens) (UniProt O75469) | f
CCCCC(C)(O)C/C=C/[C@H]1[C@H](O)CC(=O)[C@@H]1CCCCCCC(=O)OC (stereo not given in full) | Nuclear receptor subfamily 1 group I member 2 (Homo sapiens) (UniProt O75469) | f
O=P(O)(O)OC[C@H](O)CO | Nuclear receptor subfamily 1 group I member 2 (Homo sapiens) (UniProt O75469) | f
S=C=Nc1ccc(N=C=S)cc1 | Nuclear receptor subfamily 1 group I member 2 (Homo sapiens) (UniProt O75469) | f
